Target: human Y4 receptor (Homo sapiens)
Construct: expressed in transfected cells
Assay: NPY4 cAMP HTRF Agonist Assay (inhibitory cAMP assay, Gi activation by Y4 agonism)
Assay type: cell-based
Conditions: human Y4 receptor, cAMP; read-out: hY4 CAMP EC50
The following ranges of EC50 define the classes used here: bin 0 = under 20 nM, bin 1 = from 20 nM up to 60 nM, bin 2 = 60 nM and over

For the record Cc1nc2ccc(N3CCC[C@H](N[C@@H]4CCCC[C@H]4Nc4ncc(-c5cccc(C(=O)NC6CC6)c5)o4)C3)cn2n1 , report the class its EC50 corresponds to. bin 1

What would you report for CCc1nc(-c2ccc(N3CCC[C@H](N[C@@H]4CCCC[C@H]4Nc4ncc(-c5cccc(C(N)=O)c5)o4)C3)nc2)no1 ? bin 0

What would you report for CS(=O)(=O)Nc1cccc(-c2ccnc(N[C@@H]3CCCC[C@H]3N[C@H]3CCCN(c4cnc(C(F)(F)F)nc4)C3)c2)c1 ? bin 0

What would you report for C[C@]1(N[C@@H]2CCCC[C@H]2Nc2ncc(-c3cccc(C(N)=O)c3)o2)CCCN(c2ncc(C#N)cn2)C1 ? bin 1

What would you report for Cc1nnc(-c2ccc(N3CCCC(N[C@@H]4CCCC[C@H]4Nc4cc(-c5cccc(OC(F)(F)F)c5)ccn4)C3)cc2)o1 (some centres unmarked) ? bin 0

What would you report for N#Cc1ccc(N2C[C@@H]3C[C@H](N[C@@H]4CCCC[C@H]4Nc4ncc(-c5ccc(OC(F)(F)F)cc5)o4)[C@H]2C3)nn1 ? bin 2

What would you report for Cc1nnc(-c2ccc(N3CCC[C@H](N[C@@H]4CCCC[C@H]4Nc4ncc(-c5cccc(C(N)=O)c5)o4)C3)cc2)o1 ? bin 2

What would you report for N#Cc1cnc(N2CCC[C@H](N[C@@H]3CCCC[C@H]3Nc3cc(-c4cccc(C(N)=O)c4)ccn3)C2)nc1 ? bin 2

What would you report for FC(F)(F)c1ncc(N2CCC[C@H](N[C@@H]3CCCC[C@H]3Nc3ncc(-c4ccccc4)o3)C2)cn1 ? bin 2

What would you report for C[C@]1(N[C@@H]2CCCC[C@H]2Nc2ncc(-c3cccc(C(N)=O)c3)o2)CCCN(c2cnc(C(F)(F)F)cn2)C1 ? bin 0

What would you report for NC(=O)c1cccc(-c2cnc(N[C@@H]3CCCC[C@H]3N[C@H]3CCCN(c4ccc(F)cc4)C3)o2)c1 ? bin 1

What would you report for Cn1nnc(-c2ccc(N3CCC[C@H](N[C@@H]4CCCC[C@H]4Nc4cc(Br)ccn4)C3)cc2)n1 ? bin 2

What would you report for Cc1nc2ccc(N3CCC[C@H](N[C@@H]4CCCC[C@H]4Nc4ncc(-c5ccc(F)c(F)c5)o4)C3)cn2n1 ? bin 1

What would you report for C[C@]1(N[C@@H]2CCCC[C@H]2Nc2cc(-c3cccc(C(N)=O)c3)ccn2)CCCN(c2ccc(-c3noc(C4CC4)n3)nc2)C1 ? bin 0

What would you report for NC(=O)c1cccc(-c2cnc(N[C@@H]3CCCC[C@H]3N[C@H]3CCCN(c4ccc(-c5noc(C6CC6)n5)cn4)C3)o2)c1 ? bin 0

What would you report for COC(=O)Nc1cccc(-c2ccnc(N[C@@H]3CCCC[C@H]3N[C@H]3CCCN(c4ccc(-c5ncn(C)n5)cc4)C3)c2)c1 ? bin 0

What would you report for Cc1nc(-c2ccc(N3CCC[C@H](N[C@@H]4CCCC[C@H]4Nc4cc(-c5cccc(C(N)=O)c5)ccn4)C3)cc2)no1 ? bin 0

What would you report for Cc1nnc(-c2ccc(N3CCCC(N[C@@H]4CCCC[C@H]4Nc4cc(-c5cncc6ccccc56)ccn4)C3)cc2)o1 (some centres unmarked) ? bin 0

What would you report for CC(=O)Nc1cccc(-c2ccnc(N[C@@H]3CCCC[C@H]3N[C@H]3CCCN(c4ccc(-c5nnn(C)n5)cc4)C3)c2)c1 ? bin 0

What would you report for Cc1nnc(-c2ccc(N3CCC[C@H](N[C@@H]4CCCC[C@H]4Nc4cc(-c5cccc(S(N)(=O)=O)c5)ccn4)C3)cc2)o1 ? bin 2

What would you report for COC(=O)c1cccc(-c2cnc(N[C@@H]3CCCC[C@H]3N[C@H]3CCCN(c4ccc5nc(C)nn5c4)C3)o2)c1 ? bin 1

What would you report for N#Cc1cc(N2C[C@@H]3C[C@H](N[C@@H]4CCCC[C@H]4Nc4ncc(-c5cccc(C(N)=O)c5)o4)[C@H]2C3)ncn1 ? bin 2

What would you report for N#Cc1ncc(N2C[C@@H]3C[C@H](N[C@@H]4CCCC[C@H]4Nc4ncc(-c5cccc(C(N)=O)c5)o4)[C@H]2C3)cn1 ? bin 2

What would you report for NC(=O)c1cccc(-c2cnc(N[C@@H]3CCCC[C@H]3N[C@H]3C[C@@H]4C[C@H]3N(c3ncc(C(F)(F)F)cn3)C4)o2)c1 ? bin 1

What would you report for Cn1nnc(-c2ccc(N3CCC[C@H](N[C@@H]4CCCC[C@H]4Nc4cc(-c5cccc(O)c5)ccn4)C3)cc2)n1 ? bin 0

----------
Molecular target: human Y4 receptor (Homo sapiens, UniProt P50391)
Construct: expressed in transfected cells
Sequence (P50391 whole entry): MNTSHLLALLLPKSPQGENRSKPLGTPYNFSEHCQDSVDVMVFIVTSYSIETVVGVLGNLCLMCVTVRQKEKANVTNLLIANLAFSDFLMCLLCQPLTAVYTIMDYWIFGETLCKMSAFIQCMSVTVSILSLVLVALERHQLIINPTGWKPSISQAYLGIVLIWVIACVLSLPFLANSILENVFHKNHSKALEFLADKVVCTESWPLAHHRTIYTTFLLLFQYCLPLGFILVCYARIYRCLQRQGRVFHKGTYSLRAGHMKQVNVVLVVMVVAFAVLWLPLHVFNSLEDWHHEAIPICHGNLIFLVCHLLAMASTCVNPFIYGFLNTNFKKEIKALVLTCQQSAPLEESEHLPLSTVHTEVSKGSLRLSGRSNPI
Experiment: NPY4 cAMP HTRF Agonist Assay (inhibitory cAMP assay, Gi activation by Y4 agonism)
Type: cell-based
Details: second TABLE 1, R2 is Phenyl-CF3; read-out: hY4 CAMP EC50
The following ranges of EC50 define the classes used here: bucket A (below 50 nM), bucket B (50 nM to below 200 nM), bucket C (200 nM or more)

For the record OCCc1cccc(-c2ccnc(N[C@@H]3CCCC[C@H]3N[C@H]3CCCN(c4ccc(C(F)(F)F)cc4)C3)c2)c1 , report the class its EC50 corresponds to. bucket A

What would you report for CN(C)Cc1cccc(-c2ccnc(N[C@@H]3CCCC[C@H]3N[C@H]3CCCN(c4ccc(C(F)(F)F)cc4)C3)c2)c1 ? bucket C

What would you report for CC(C)NC(=O)c1cccc(-c2cnc(N[C@@H]3CCCC[C@H]3N[C@H]3CCCN(c4ccc(C(F)(F)F)cc4)C3)o2)c1 ? bucket A

What would you report for FC(F)(F)c1ccc(N2CCC[C@H](N[C@@H]3CCCC[C@H]3Nc3cc(-c4ccncc4)ccn3)C2)cc1 ? bucket A

What would you report for CC(C)(C)c1cccc(-c2ccnc(N[C@@H]3CCCC[C@H]3N[C@H]3CCCN(c4ccc(C(F)(F)F)cc4)C3)c2)c1 ? bucket C

What would you report for FC(F)(F)Oc1ccc(-n2nnc(N[C@@H]3CCCC[C@H]3N[C@H]3CCCN(c4ccc(C(F)(F)F)cc4)C3)n2)cc1 ? bucket C

What would you report for FC(F)(F)c1ccc(N2CCC[C@H](N[C@@H]3CCCC[C@H]3Nc3cc(-c4cn[nH]c4)ccn3)C2)cc1 ? bucket B

What would you report for CC(C)(C)NC(=O)c1cccc(-c2ccnc(N[C@@H]3CCCC[C@H]3N[C@H]3CCCN(c4ccc(C(F)(F)F)cc4)C3)c2)c1 ? bucket C

What would you report for CN(C)C(=O)c1cccc(-c2cnc(N[C@@H]3CCCC[C@H]3N[C@H]3CCCN(c4ccc(C(F)(F)F)cc4)C3)o2)c1 ? bucket C

What would you report for N#Cc1cccc(-c2cnc(N[C@@H]3CCCC[C@H]3N[C@H]3CCCN(c4ccc(C(F)(F)F)cc4)C3)o2)c1 ? bucket C

What would you report for FC(F)(F)c1ccc(N2CCC[C@H](N[C@@H]3CCCC[C@H]3Nc3cc(-c4cccc(N5CCCC5)c4)ccn3)C2)cc1 ? bucket B

What would you report for COC(=O)N(C)c1cccc(-c2ccnc(N[C@@H]3CCCC[C@H]3N[C@H]3CCCN(c4ccc(C(F)(F)F)cc4)C3)c2)c1 ? bucket C

What would you report for O=C(NC1CCCC1)c1cccc(-c2ccnc(N[C@@H]3CCCC[C@H]3N[C@H]3CCCN(c4ccc(C(F)(F)F)cc4)C3)c2)c1 ? bucket B

What would you report for CC(=O)N(C)c1cccc(-c2ccnc(N[C@@H]3CCCC[C@H]3N[C@H]3CCCN(c4ccc(C(F)(F)F)cc4)C3)c2)c1 ? bucket C

What would you report for FC(F)(F)c1ccc(N2CCC[C@H](N[C@@H]3CCCC[C@H]3Nc3cc(-c4cc[nH]c4)ccn3)C2)cc1 ? bucket B

What would you report for CC(C)(C)NC(=O)c1cccc(-c2cnc(N[C@@H]3CCCC[C@H]3N[C@H]3CCCN(c4ccc(C(F)(F)F)cc4)C3)o2)c1 ? bucket A

What would you report for OC1(c2cccc(-c3ccnc(N[C@@H]4CCCC[C@H]4N[C@H]4CCCN(c5ccc(C(F)(F)F)cc5)C4)c3)c2)CC1 ? bucket C

What would you report for NC(=O)c1cccc(-c2ccnc(N[C@@H]3CCCC[C@H]3N[C@H]3C[C@@H]4C[C@H]3N(c3ccc(C(F)(F)F)cc3)C4)c2)c1 ? bucket A

What would you report for OCCCCc1ccnc(N[C@@H]2CCCC[C@H]2N[C@H]2CCCN(c3ccc(C(F)(F)F)cc3)C2)c1 ? bucket A

What would you report for OCc1cccc(-c2ccnc(N[C@@H]3CCCC[C@H]3N[C@H]3CCCN(c4ccc(C(F)(F)F)cc4)C3)c2)c1 ? bucket A

What would you report for CNCc1cccc(-c2ccnc(N[C@@H]3CCCC[C@H]3N[C@H]3CCCN(c4ccc(C(F)(F)F)cc4)C3)c2)c1 ? bucket A

What would you report for FC(F)(F)c1ccc(N2CCC[C@H](N[C@@H]3CCCC[C@H]3Nc3cc4ccccc4cn3)C2)cc1 ? bucket A

What would you report for NC(=O)c1cccc(-c2cnc(N[C@@H]3CCCC[C@H]3N[C@H]3C[C@@H]4C[C@H]3N(c3ccc(C(F)(F)F)cc3)C4)o2)c1 ? bucket A

What would you report for CCOC(=O)c1cnc(N[C@@H]2CCCC[C@H]2N[C@H]2CCCN(c3ccc(C(F)(F)F)cc3)C2)o1 ? bucket C
